Assay: Solubility of compound in fed state simulated intestinal fluid at pH 5
Format: physicochemical
reported endpoint: solubility

smiles_str=C=C(C)[C@@H]1CC[C@]2(NCCN3CCS(=O)(=O)CC3)CC[C@]3(C)[C@H](CC[C@@H]4[C@@]5(C)CC=C(c6ccc(C(=O)O)c(F)c6)C(C)(C)[C@@H]5CC[C@]43C)[C@@H]12 value="330 µg/mL"
smiles_str=C=C(C)[C@@H]1CC[C@]2(NCCN3CCS(=O)(=O)CC3)CC[C@]3(C)[C@H](CC[C@@H]4[C@@]5(C)CC=C(c6ccc(C(=O)O)cc6)C(C)(C)[C@@H]5CC[C@]43C)[C@@H]12 value="1020 µg/mL"

---

Assay: in vitro
Conditions: rat, liver microsomes
Description: Half life in rat liver microsomes at 0.5 uM after 1 hr in presence of NADPH by LC-MS/MS analysis
Catalogue of half-life at 1 h, 0.5 µM readings, one per entry.
reported endpoint: half-life at 1 h, 0.5 µM

molecule="C=C(C)[C@@H]1CC[C@]2(NC(=O)C(C(C)C)N3CCS(=O)(=O)CC3)CC[C@]3(C)[C@H](CC[C@@H]4[C@@]5(C)CC=C(c6ccc(C(=O)O)cc6)C(C)(C)[C@@H]5CC[C@]43C)[C@@H]12 (some centres not stated)" value="> 2 h"
molecule=C=C(C)[C@@H]1CC[C@]2(C(=O)NCCCN3CCS(=O)(=O)CC3)CC[C@]3(C)[C@H](CC[C@@H]4[C@@]5(C)CC=C(c6ccc(C(=O)O)cc6)C(C)(C)[C@@H]5CC[C@]43C)[C@@H]12 value="> 2 h"

---

Assay: in vitro
Settings: human, MT2 cells
Description: Cytotoxicity against human MT2 cells assessed as reduction in cell viability
reported endpoint: CC50 (µM)

smiles_str=C=C(C)[C@@H]1CC[C@]2(NC(=O)CN3CCS(=O)(=O)CC3)CC[C@]3(C)[C@H](CC[C@@H]4[C@@]5(C)CC=C(c6ccc(C(=O)O)cc6)C(C)(C)[C@@H]5CC[C@]43C)[C@@H]12 value=9.9
smiles_str=C=C(C)[C@@H]1CC[C@]2(NC(=O)CCN3CCS(=O)(=O)CC3)CC[C@]3(C)[C@H](CC[C@@H]4[C@@]5(C)CC=C(c6ccc(C(=O)O)cc6)C(C)(C)[C@@H]5CC[C@]43C)[C@@H]12 value=16.3
smiles_str=C=C(C)[C@@H]1CC[C@]2(NCCN3CCS(=O)(=O)CC3)CC[C@]3(C)[C@H](CC[C@@H]4[C@@]5(C)CC=C(c6ccc(C(=O)O)c(F)c6)C(C)(C)[C@@H]5CC[C@]43C)[C@@H]12 value=7.8
smiles_str=C=C(C)[C@@H]1CC[C@]2(NCCN3CCN(S(C)(=O)=O)CC3)CC[C@]3(C)[C@H](CC[C@@H]4[C@@]5(C)CC=C(c6ccc(C(=O)O)cc6)C(C)(C)[C@@H]5CC[C@]43C)[C@@H]12 value=10.7
smiles_str=C=C(C)[C@@H]1CC[C@]2(NCCN3CCC(S(C)(=O)=O)CC3)CC[C@]3(C)[C@H](CC[C@@H]4[C@@]5(C)CC=C(c6ccc(C(=O)O)cc6)C(C)(C)[C@@H]5CC[C@]43C)[C@@H]12 value=13.7
smiles_str=C=C(C)[C@@H]1CC[C@]2(C(=O)NCCN3CCS(=O)(=O)CC3)CC[C@]3(C)[C@H](CC[C@@H]4[C@@]5(C)CC=C(c6ccc(C(=O)O)cc6)C(C)(C)[C@@H]5CC[C@]43C)[C@@H]12 value=7.9
smiles_str=C=C(C)[C@@H]1CC[C@]2(NCCN3CCN(S(=O)(=O)C(C)C)CC3)CC[C@]3(C)[C@H](CC[C@@H]4[C@@]5(C)CC=C(c6ccc(C(=O)O)cc6)C(C)(C)[C@@H]5CC[C@]43C)[C@@H]12 value=11.9
smiles_str=C=C(C)[C@@H]1CC[C@]2(NCCN3CC4(C3)CN(S(C)(=O)=O)C4)CC[C@]3(C)[C@H](CC[C@@H]4[C@@]5(C)CC=C(c6ccc(C(=O)O)cc6)C(C)(C)[C@@H]5CC[C@]43C)[C@@H]12 value=12

---

Experiment: Half life in rat hepatocytes at 0.5 uM after 1 hr in presence of NADPH by LC-MS/MS analysis
Format: ADME, cell-based, Hepatocyte
reported endpoint: half-life at 0.5 µM

smiles_str=C=C(C)[C@@H]1CC[C@]2(NCCN3CCS(=O)(=O)CC3)CC[C@]3(C)[C@H](CC[C@@H]4[C@@]5(C)CC=C(c6ccc(C(=O)O)cc6)C(C)(C)[C@@H]5CC[C@]43C)[C@@H]12 value="> 120 min"

---

Assay: Tmax in Sprague-Dawley rat at 5 mg/kg, id
Type: ADME, organism-based
Conditions: in vivo
reported endpoint: Tmax (h)

smiles_str=C=C(C)[C@@H]1CC[C@]2(NCCN3CCS(=O)(=O)CC3)CC[C@]3(C)[C@H](CC[C@@H]4[C@@]5(C)CC=C(c6ccc(C(=O)O)cc6)C(C)(C)[C@@H]5CC[C@]43C)[C@@H]12 reported_endpoint=Tmax value=1

---

Experiment: Tmax in CD1 mouse at 5 mg/kg, po administered via gavage
Type: ADME, organism-based
Details: in vivo
reported endpoint: Tmax

compound="C=C(C)[C@@H]1CC[C@]2(NCCN3CCS(=O)(=O)CC3)CC[C@]3(C)[C@H](CC[C@@H]4[C@@]5(C)CC=C(c6ccc(C(=O)O)cc6)C(C)(C)[C@@H]5CC[C@]43C)[C@@H]12 [BMS-955176]" value="3 h"

---

Assay: Cmax in Sprague-Dawley rat at 5 mg/kg, id
Assay type: ADME, organism-based
Set-up: dose 5 mg/kg
Details: in vivo
reported endpoint: Cmax (nM)

smiles_str=C=C(C)[C@@H]1CC[C@]2(NCCN3CCS(=O)(=O)CC3)CC[C@]3(C)[C@H](CC[C@@H]4[C@@]5(C)CC=C(c6ccc(C(=O)O)cc6)C(C)(C)[C@@H]5CC[C@]43C)[C@@H]12 value=1700

---

Experiment: Volume of distribution at steady state in Sprague-Dawley rat at 1 mg/kg, iv
Format: ADME, organism-based
Details: in vivo, read-out: Vdss
reported endpoint: Vd (L/kg)

compound="C=C(C)[C@@H]1CC[C@]2(NCCN3CCS(=O)(=O)CC3)CC[C@]3(C)[C@H](CC[C@@H]4[C@@]5(C)CC=C(c6ccc(C(=O)O)cc6)C(C)(C)[C@@H]5CC[C@]43C)[C@@H]12 [BMS-955176]" value=1.1

---

Assay: Oral bioavailability in Sprague-Dawley rat at 5 mg/kg treated with 10 mg/kg elacridar immediately after compound dosing
Type: ADME, organism-based
Details: in vivo, with elacridar 10 mg/kg
reported endpoint: bioavailability (%)

molecule="C=C(C)[C@@H]1CC[C@]2(NCCN3CCS(=O)(=O)CC3)CC[C@]3(C)[C@H](CC[C@@H]4[C@@]5(C)CC=C(c6ccc(C(=O)O)cc6)C(C)(C)[C@@H]5CC[C@]43C)[C@@H]12 [BMS-955176]" value=63

---

Experiment: Cmax in MDR1 a/b knockout mouse at 5 mg/kg, po administered via gavage
Type: ADME, organism-based
Parameters: dose 5 mg/kg, route oral
Settings: in vivo
reported endpoint: Cmax (µM)

smiles_str=C=C(C)[C@@H]1CC[C@]2(NCCN3CCS(=O)(=O)CC3)CC[C@]3(C)[C@H](CC[C@@H]4[C@@]5(C)CC=C(c6ccc(C(=O)O)cc6)C(C)(C)[C@@H]5CC[C@]43C)[C@@H]12 value=4.02

---

Assay: in vitro
Settings: rat, liver microsomes
Measured half-life at 1 h, 0.5 µM of individual entries
reported endpoint: half-life at 1 h, 0.5 µM

compound="C=C(C)[C@@H]1CC[C@]2(NCCNC3CCN(S(C)(=O)=O)C3)CC[C@]3(C)[C@H](CC[C@@H]4[C@@]5(C)CC=C(c6ccc(C(=O)O)cc6)C(C)(C)[C@@H]5CC[C@]43C)[C@@H]12 (stereo partly drawn)" reported_endpoint="half-life at 1 h, 0.5 µM" value="> 2 h"
compound=C=C(C)[C@@H]1CC[C@]2(NCCN3CC4(C3)CN(S(C)(=O)=O)C4)CC[C@]3(C)[C@H](CC[C@@H]4[C@@]5(C)CC=C(c6ccc(C(=O)O)cc6)C(C)(C)[C@@H]5CC[C@]43C)[C@@H]12 reported_endpoint="half-life at 1 h, 0.5 µM" value="> 2 h"
compound=C=C(C)[C@@H]1CC[C@]2(C(=O)NCCN3CCS(=O)(=O)CC3)CC[C@]3(C)[C@H](CC[C@@H]4[C@@]5(C)CC=C(c6ccc(C(=O)O)cc6)C(C)(C)[C@@H]5CC[C@]43C)[C@@H]12 reported_endpoint="half-life at 1 h, 0.5 µM" value="> 2 h"

---

Experiment: Tmax in beagle dog at 5 mg/kg, po administered via gavage as microsuspension pre-treated with 40 mg famotidine in capsule form 1 hr before compound dosing
Assay type: ADME, organism-based, Canis lupus familiaris
Settings: in vivo
reported endpoint: Tmax (h)

smiles_str=C=C(C)[C@@H]1CC[C@]2(NCCN3CCS(=O)(=O)CC3)CC[C@]3(C)[C@H](CC[C@@H]4[C@@]5(C)CC=C(c6ccc(C(=O)O)cc6)C(C)(C)[C@@H]5CC[C@]43C)[C@@H]12 value=13.5

Taken from ChEMBL document CHEMBL4152347.
